target_or_test_system: human sputum elastase (Homo sapiens)
Sequence (P08246 30-247 limits assumed): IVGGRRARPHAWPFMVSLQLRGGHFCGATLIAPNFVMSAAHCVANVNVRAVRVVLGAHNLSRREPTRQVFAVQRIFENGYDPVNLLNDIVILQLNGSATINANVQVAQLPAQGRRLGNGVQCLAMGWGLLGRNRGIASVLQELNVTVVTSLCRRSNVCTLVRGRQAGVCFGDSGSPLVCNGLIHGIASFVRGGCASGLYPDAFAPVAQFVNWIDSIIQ
method: Inhibitory effect on elastase (human sputum), spectrophotometric assay with MeOSuc-Ala-Ala-Pro-Val-pNA
Type: biochemical
quantity_kind: IC50 (nM)
Numbers only, in nM.

Input line: Can you look up IC50 on human sputum elastase (Homo sapiens) for CC(=O)O.CC(C)(C)C(=O)Oc1ccc(-c2nnn(CCNC(=O)c3ccc(NC(=N)N)cc3)n2)cc1 [Example 95, Acetate] ?
Output line: 250

* * *

method: Cytotoxicity test (MTT, three days)
Type: cell-based
measurement_parameters: mouse, l1210 cells, final concentration 5 μM, read-out: Survival rate
Experimental: L1210 (lymphocytic leukemia, mouse) cells in a logarithmic growth phase were collected and washed twice with HBSS (Hanks' balanced salt solution). […] Absorbance was measured at 630 nm as a reference wavelength and 570 nm as a measuring wavelength using Corona Electric MTP22 Microplate Photometer. […] Survival rate was calculated by the following equation: Survival rate (5)=[(absorbance of test sample)/(absobance of […]
Field: viability at 72 h, 5 µM. Provide a value for each of the compounds that follow.
Numbers only, in %.

CN(C)c1ccc(Cn2nnc(-c3ccc(OC(=O)C(C)(C)C)c(N(C)C)c3)n2)cc1    96.1
CC(C)(C)C(=O)Oc1ccc(-c2nnn(Cc3ccncc3)n2)cc1    110
CC(C)(C)C(=O)Oc1ccc(-c2nnn(Cc3ccccc3C(=O)NCC(=O)O)n2)cc1    103
CC(C)c1ccc(-n2nnc(-c3ccc(OC(=O)C(C)(C)C)cc3)n2)cc1    88.7
CC(C)(C)C(=O)Oc1ccc(-c2nnn(CC(=O)O)n2)cc1    98.1
CN(C)c1ccc(Cn2nnc(-c3ccc(OC(=O)C(C)(C)C)cc3)n2)cc1    103
COc1ccc(COCCCCn2nnc(-c3ccccc3OC(=O)C(C)(C)C)n2)cc1    86.4
COc1ccc(COCCCCn2nnc(-c3cccc(OC(=O)C(C)(C)C)c3)n2)cc1    102
CC(C)(C)C(=O)Oc1ccc(-c2nnn(Cc3ccccc3)n2)cc1 [Example 9, 4-(2-Benzyltetrazol-5-yl)phenyl pivalate]    100
CC(C)(C)C(=O)Oc1ccc(-c2nnn(Cc3ccccc3N)n2)cc1    107

Lab note: each compound below needs its viability at 72 h, 5 µM filled in.
1. CC(=O)O.CC(C)(C)C(=O)Oc1ccc(-c2nnn(CCNC(=O)c3ccc(NC(=N)N)cc3)n2)cc1 [Example 95, Acetate]
2. CC(C)(C)C(=O)Oc1ccc(-c2nnn(Cc3ccc(C(=O)O)cc3)n2)cc1
3. COc1cc(-c2nnn(Cc3ccc(N(C)C)cc3)n2)ccc1OC(=O)C(C)(C)C
4. CC(C)[C@H](NC(=O)c1ccc(Cn2nnc(-c3ccc(OC(=O)C(C)(C)C)cc3)n2)cc1)C(=O)O

Output line:
1: 109; 2: 107; 3: 94.6; 4: 100

Numbers sourced from patent US5602161A.
